Target: mineralcorticoid receptor (Homo sapiens, UniProt P08235)
Sequence (P08235 1-984): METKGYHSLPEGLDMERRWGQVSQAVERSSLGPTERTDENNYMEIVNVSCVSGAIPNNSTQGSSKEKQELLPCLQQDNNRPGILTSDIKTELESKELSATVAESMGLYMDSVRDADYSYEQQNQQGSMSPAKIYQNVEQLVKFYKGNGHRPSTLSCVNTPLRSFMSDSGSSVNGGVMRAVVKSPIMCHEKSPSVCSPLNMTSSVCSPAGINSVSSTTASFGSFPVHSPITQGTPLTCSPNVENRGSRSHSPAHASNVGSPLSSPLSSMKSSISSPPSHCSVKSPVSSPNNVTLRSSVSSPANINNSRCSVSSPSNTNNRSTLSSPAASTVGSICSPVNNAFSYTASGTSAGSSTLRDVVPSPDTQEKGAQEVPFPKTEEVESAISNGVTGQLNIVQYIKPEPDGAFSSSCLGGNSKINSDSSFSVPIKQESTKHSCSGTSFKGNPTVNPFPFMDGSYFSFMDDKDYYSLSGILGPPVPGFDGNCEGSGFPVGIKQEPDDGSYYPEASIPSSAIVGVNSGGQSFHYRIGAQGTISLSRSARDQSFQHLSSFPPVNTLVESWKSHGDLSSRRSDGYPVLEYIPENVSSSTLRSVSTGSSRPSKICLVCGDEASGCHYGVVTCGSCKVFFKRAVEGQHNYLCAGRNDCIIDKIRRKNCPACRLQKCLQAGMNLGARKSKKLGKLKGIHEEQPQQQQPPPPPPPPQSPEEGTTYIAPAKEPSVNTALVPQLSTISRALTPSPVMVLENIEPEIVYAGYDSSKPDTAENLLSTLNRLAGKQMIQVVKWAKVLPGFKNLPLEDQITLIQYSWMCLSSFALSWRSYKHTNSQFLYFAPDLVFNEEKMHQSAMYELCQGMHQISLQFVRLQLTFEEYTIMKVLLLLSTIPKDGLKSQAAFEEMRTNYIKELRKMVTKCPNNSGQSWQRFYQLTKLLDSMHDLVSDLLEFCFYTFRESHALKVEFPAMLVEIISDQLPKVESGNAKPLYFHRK
Assay: MR antagonism luciferase reporter cell line assay
Format: cell-based
Details: reporter cell lines, 16 hours incubation, luciferase luminescence; read-out: MR Antagonism IC50
Recorded IC50 for the following compounds

| item smiles | IC50 [nM] |
| --- | --- |
| C=CC[C@]1(C#N)CC[C@H]2[C@@H]3CCC4=CC(=O)CC[C@]4(C)[C@H]3CC[C@@]21C | 990 |
| C[C@]12CCC(=O)C=C1CC[C@H]1[C@@H]3[C@@H]4C[C@@H]4[C@](C)(C#N)[C@@]3(C)CC[C@@H]12 | 42 |
